# Lookup of reported melting point keyed by entry
quantity-kind: melting point

COCc1cc2c(s1)CCc1cc(=O)n(-c3ccc(Cl)cc3)nc1-2    159 to 160 °C
COC(=O)CC(=O)c1cnccn1    109 to 110 °C
CN(C)CCOc1ccc(/C(=C(\c2ccccc2)C(F)(F)F)c2ccccc2)cc1    90 to 91 °C
CCn1cc(C(=O)O)c(=O)c2cc(F)c(N3CCN(C)C(COc4ccccc4)C3)cc21 (stereo unspecified)    202 to 204 °C
ClCCCCSCc1ccc2ccccc2c1    47 to 49 °C
Cc1c(CC(N)=O)c2cc(OCCCP(=O)(O)O)ccc2n1Cc1ccccc1    199 to 203 °C

###

# Lookup of reported melting point keyed by entry
quantity-kind: melting point

CCCCCCCCCCCCCCN(O)CCCCCCCCCCCCCC    94 to 96 °C
Nc1c2c(nc3ccccc13)CC(O)CC2O (configuration not stated)    158 to 162 °C
C=CCOc1ccc2c(c1C=NO)OCO2    166 to 167 °C
COc1cc(OC)c(-c2cncnc2)cc1/C=C/C(=O)c1ccc(C(=O)O)cc1    > 260 °C
CC(C)c1noc(-c2ncn3c2nc(N2CCOCC2)c2cc(F)ccc23)n1    262 to 264 °C
CC(=O)OCCN1C2=NCCN2C(=O)c2ccccc21    124 to 126 °C
C=C(C)C(=O)OC1CC(=O)NC1=O (configuration not stated)    102 °C
O=[N+]([O-])C(CN1CCOCC1)=C1NCCCS1    131 to 132 °C
CC(C)(C)OC(=O)N1CC2CN(C(N)=S)CC2C1 (configuration not stated)    188 to 190 °C
CCC1(C)CC(=O)C(C(=O)Nc2cccc(C(F)(F)F)c2)C(=O)C1 (configuration not stated)    81 to 82 °C
CC1COc2c(N3Cc4ccccc4C3)c(F)cc3c(=O)c(C(=O)O)cn1c23 (configuration not stated)    > 300 °C
COc1ccc2cc(Oc3cnc(N)nc3N)c(C(C)C)cc2c1    170 to 172 °C
Cn1c(C(=O)OCc2ccccc2)c(-c2ccc(F)cc2)c2cccnc2c1=O    217 to 218 °C
CCNC(=O)Oc1ccc2cc(N3CC(COC)OC3=O)ccc2c1 (configuration not stated)    126 to 128 °C
COc1ccc(-c2ccc(C(=O)Nc3ccc4cc(CN5CCCCC5)cnc4c3C)c(F)c2)cc1    191 to 192 °C
O=C1C(=O)c2ccccc2C2=C1SCC1(CCN(CC(O)CC(F)(F)F)CC1)O2 (configuration not stated)    145 to 148 °C
O=C(O)C1CC(=C2CCCN(c3ccccc3)C2=O)c2ccc(Cl)cc2N1 (configuration not stated)    130 to 133 °C
COc1ccc(-c2nccc3c(C)cccc23)cc1    60.4 to 60.8 °C
OCc1coc(-c2cccs2)n1    98 to 99 °C
CCC(CC)c1nnc(SC)n(N)c1=O    50 to 56 °C
CC(=O)Nc1cc2c(cc1Cl)CCN(C)C[C@@H]2c1ccccc1    105 to 110 °C
COc1cc(O)c(C(=O)C=Cc2sccc2C)c(OC)c1    124 °C

###

quantity-kind: melting point

COc1ccc(CNC(=O)Nc2ccc(CN3C(=O)[C@H]4CCC[C@H]4N(C(=O)CN4C(=O)c5ccccc5C4=O)c4ccccc43)cc2)cc1 (relative stereo)    156 to 158 °C
C#CCn1cc(C#N)c(CO)c1    95 °C
N#CC1(c2cccc3ccccc23)CCC(=O)CC1    166 to 167 °C
Cc1cc(C)c(CSc2ccccc2)c(-c2ccc(F)c(C)c2)c1    72 to 74 °C
C#Cc1ccc2c(c1-c1cn(C3CC(O)C(COC(c4ccccc4)(c4ccc(OC)cc4)c4ccc(OC)cc4)O3)c(=O)[nH]c1=O)Cc1ccccc1-2 (centres undefined)    160 to 161 °C
Clc1ccc(-c2nc(Cl)nc(Cl)c2-c2ccccc2)cc1    129 to 131 °C
c1cc(-c2ccsc2)ccn1    138 °C
O=C(NC1CCC1)c1cc([N+](=O)[O-])[nH]n1    240 °C
CCc1c(C(C)(C)C)cc(C(C)(C)C)c(O)c1C(=O)Nc1ccc(S(=O)(=O)C(F)(F)F)cc1Cl    157 to 158 °C
